Test system: 565726-208-R1-J5-PDC complex spheroids, growth inhibition;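 further: spheroids exposed to compounds for seven days before readout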
assay_details: Anticancer human tumor 565726-208-R1-J5-PDC patient-derived pancreatic adenocarcinoma cell line growth inhibition [RAS]; active means viability on the fitted dose curve at most 10% of control; inactive means the rest
condition_set: second compound 0.003 µM; first compound 0.3 µM
Outcomes: active, inactive

>  <compound>
CCc1c2c(nc3ccc(O)cc13)-c1cc3c(c(=O)n1C2)COC(=O)[C@]3(O)CC + CCn1c(-c2cccnc2C(C)OC)c2c3cc(ccc31)N1CCOC(CC(NC(=O)C(C(C)C)N(C)C(=O)C3(F)CCN(C(=O)C#CC(C)(C)N(C)C)CC3)C(=O)N3CCCC(N3)C(=O)OCC(C)(C)C2)C1

>  <label>
active

$$$$
>  <compound>
CC1(C)CCC(Nc2ncc(C(F)(F)F)c(-c3c[nH]c4c(P(C)(C)=O)c(C#N)ccc34)n2)CN1 (centres undefined) + CCn1c(-c2cccnc2C(C)OC)c2c3cc(ccc31)N1CCOC(CC(NC(=O)C(C(C)C)N(C)C(=O)C3(F)CCN(C(=O)C#CC(C)(C)N(C)C)CC3)C(=O)N3CCCC(N3)C(=O)OCC(C)(C)C2)C1

>  <label>
inactive

$$$$
>  <compound>
CC1(C)CCC(Nc2ncc(C(F)(F)F)c(-c3c[nH]c4c(P(C)(C)=O)c(C#N)ccc34)n2)CN1 (centres undefined) + CCn1c(-c2cc(N3CCN(C)CC3)cnc2C(C)OC)c2c3cc(ccc31)-c1csc(n1)CC(NC(=O)C1CC1C)C(=O)N1CCCC(N1)C(=O)OCC(C)(C)C2

>  <label>
inactive

$$$$
>  <compound>
CCc1c2c(nc3ccc(O)cc13)-c1cc3c(c(=O)n1C2)COC(=O)[C@]3(O)CC + CCn1c(-c2cc(N3CCN(C)CC3)cnc2C(C)OC)c2c3cc(ccc31)-c1csc(n1)CC(NC(=O)C1CC1C)C(=O)N1CCCC(N1)C(=O)OCC(C)(C)C2

>  <label>
active

$$$$

Entry source: PubChem BioAssay AID2060899
